# study_system: full-length ATR (Homo sapiens)
# Construct: Assays were carried out at 25° C. in the presence of 5 nM full-length ATR
# assay_method_text: ATR Inhibition Assay (radioactive-phosphate incorporation)
# Type: biochemical
Reported Ki is given for each of the following compounds.

[
  {
    "compound": "CC(C)S(=O)(=O)c1ccc(-c2cnc(N)c(NC[C@H](O)c3ccccc3)n2)cc1",
    "Ki": "> 1 µM"
  },
  {
    "compound": "CC(C)S(=O)(=O)c1ccc(-c2cnc(N)c(NCc3ccccc3)n2)cc1",
    "Ki": "> 1 µM"
  },
  {
    "compound": "CC(C)S(=O)(=O)c1ccc(-c2cnc(N)c(CCc3ccccc3)n2)cc1",
    "Ki": "≤ 0.1 µM"
  },
  {
    "compound": "CC(C)S(=O)(=O)c1ccc(-c2cnc(N)c(C(=O)c3ccccc3)n2)cc1",
    "Ki": "≤ 0.1 µM"
  },
  {
    "compound": "CS(=O)(=O)c1ccc(-c2cnc(N)c(/C=C/c3ccccc3)n2)cc1",
    "Ki": "≤ 0.1 µM"
  },
  {
    "compound": "CC(C)S(=O)(=O)c1ccc(-c2cnc(N)c(/C(F)=C/c3ccccc3)n2)cc1",
    "Ki": "≤ 0.1 µM"
  },
  {
    "compound": "CS(=O)(=O)c1ccc(-c2cnc(N)c(OCc3ccccc3)n2)cc1",
    "Ki": "≤ 0.1 µM"
  },
  {
    "compound": "CC(C)n1cc(-c2cnc(N)c(OCc3ccccc3)n2)ccc1=O",
    "Ki": "0.1 to 1 µM"
  },
  {
    "compound": "CS(=O)(=O)c1ccc(-c2cnc(N)c(NS(=O)(=O)c3ccccc3)n2)cc1",
    "Ki": "> 1 µM"
  },
  {
    "compound": "CC(C)S(=O)(=O)c1ccc(-c2cnc(N)c(NCC3=CC(O)CC=C3)n2)cc1 (stereo not shown)",
    "Ki": "0.1 to 1 µM"
  },
  {
    "compound": "CC(C)S(=O)(=O)c1ccc(-c2cnc(N)c(NCCc3ccccc3)n2)cc1",
    "Ki": "> 1 µM"
  },
  {
    "compound": "CC(C)S(=O)(=O)c1ccc(-c2cnc(N)c(NC[C@@H](O)c3ccccc3)n2)cc1",
    "Ki": "> 1 µM"
  },
  {
    "compound": "CC(C)S(=O)(=O)c1ccc(-c2cnc(N)c(N3CCC(N)C3)n2)cc1 (stereo not shown)",
    "Ki": "> 1 µM"
  }
]

====

# study_system: full-length ATR (Homo sapiens, UniProt Q13535)
# Construct: Assays were carried out at 25° C. in the presence of 5 nM full-length ATR
# Sequence (Q13535 whole entry): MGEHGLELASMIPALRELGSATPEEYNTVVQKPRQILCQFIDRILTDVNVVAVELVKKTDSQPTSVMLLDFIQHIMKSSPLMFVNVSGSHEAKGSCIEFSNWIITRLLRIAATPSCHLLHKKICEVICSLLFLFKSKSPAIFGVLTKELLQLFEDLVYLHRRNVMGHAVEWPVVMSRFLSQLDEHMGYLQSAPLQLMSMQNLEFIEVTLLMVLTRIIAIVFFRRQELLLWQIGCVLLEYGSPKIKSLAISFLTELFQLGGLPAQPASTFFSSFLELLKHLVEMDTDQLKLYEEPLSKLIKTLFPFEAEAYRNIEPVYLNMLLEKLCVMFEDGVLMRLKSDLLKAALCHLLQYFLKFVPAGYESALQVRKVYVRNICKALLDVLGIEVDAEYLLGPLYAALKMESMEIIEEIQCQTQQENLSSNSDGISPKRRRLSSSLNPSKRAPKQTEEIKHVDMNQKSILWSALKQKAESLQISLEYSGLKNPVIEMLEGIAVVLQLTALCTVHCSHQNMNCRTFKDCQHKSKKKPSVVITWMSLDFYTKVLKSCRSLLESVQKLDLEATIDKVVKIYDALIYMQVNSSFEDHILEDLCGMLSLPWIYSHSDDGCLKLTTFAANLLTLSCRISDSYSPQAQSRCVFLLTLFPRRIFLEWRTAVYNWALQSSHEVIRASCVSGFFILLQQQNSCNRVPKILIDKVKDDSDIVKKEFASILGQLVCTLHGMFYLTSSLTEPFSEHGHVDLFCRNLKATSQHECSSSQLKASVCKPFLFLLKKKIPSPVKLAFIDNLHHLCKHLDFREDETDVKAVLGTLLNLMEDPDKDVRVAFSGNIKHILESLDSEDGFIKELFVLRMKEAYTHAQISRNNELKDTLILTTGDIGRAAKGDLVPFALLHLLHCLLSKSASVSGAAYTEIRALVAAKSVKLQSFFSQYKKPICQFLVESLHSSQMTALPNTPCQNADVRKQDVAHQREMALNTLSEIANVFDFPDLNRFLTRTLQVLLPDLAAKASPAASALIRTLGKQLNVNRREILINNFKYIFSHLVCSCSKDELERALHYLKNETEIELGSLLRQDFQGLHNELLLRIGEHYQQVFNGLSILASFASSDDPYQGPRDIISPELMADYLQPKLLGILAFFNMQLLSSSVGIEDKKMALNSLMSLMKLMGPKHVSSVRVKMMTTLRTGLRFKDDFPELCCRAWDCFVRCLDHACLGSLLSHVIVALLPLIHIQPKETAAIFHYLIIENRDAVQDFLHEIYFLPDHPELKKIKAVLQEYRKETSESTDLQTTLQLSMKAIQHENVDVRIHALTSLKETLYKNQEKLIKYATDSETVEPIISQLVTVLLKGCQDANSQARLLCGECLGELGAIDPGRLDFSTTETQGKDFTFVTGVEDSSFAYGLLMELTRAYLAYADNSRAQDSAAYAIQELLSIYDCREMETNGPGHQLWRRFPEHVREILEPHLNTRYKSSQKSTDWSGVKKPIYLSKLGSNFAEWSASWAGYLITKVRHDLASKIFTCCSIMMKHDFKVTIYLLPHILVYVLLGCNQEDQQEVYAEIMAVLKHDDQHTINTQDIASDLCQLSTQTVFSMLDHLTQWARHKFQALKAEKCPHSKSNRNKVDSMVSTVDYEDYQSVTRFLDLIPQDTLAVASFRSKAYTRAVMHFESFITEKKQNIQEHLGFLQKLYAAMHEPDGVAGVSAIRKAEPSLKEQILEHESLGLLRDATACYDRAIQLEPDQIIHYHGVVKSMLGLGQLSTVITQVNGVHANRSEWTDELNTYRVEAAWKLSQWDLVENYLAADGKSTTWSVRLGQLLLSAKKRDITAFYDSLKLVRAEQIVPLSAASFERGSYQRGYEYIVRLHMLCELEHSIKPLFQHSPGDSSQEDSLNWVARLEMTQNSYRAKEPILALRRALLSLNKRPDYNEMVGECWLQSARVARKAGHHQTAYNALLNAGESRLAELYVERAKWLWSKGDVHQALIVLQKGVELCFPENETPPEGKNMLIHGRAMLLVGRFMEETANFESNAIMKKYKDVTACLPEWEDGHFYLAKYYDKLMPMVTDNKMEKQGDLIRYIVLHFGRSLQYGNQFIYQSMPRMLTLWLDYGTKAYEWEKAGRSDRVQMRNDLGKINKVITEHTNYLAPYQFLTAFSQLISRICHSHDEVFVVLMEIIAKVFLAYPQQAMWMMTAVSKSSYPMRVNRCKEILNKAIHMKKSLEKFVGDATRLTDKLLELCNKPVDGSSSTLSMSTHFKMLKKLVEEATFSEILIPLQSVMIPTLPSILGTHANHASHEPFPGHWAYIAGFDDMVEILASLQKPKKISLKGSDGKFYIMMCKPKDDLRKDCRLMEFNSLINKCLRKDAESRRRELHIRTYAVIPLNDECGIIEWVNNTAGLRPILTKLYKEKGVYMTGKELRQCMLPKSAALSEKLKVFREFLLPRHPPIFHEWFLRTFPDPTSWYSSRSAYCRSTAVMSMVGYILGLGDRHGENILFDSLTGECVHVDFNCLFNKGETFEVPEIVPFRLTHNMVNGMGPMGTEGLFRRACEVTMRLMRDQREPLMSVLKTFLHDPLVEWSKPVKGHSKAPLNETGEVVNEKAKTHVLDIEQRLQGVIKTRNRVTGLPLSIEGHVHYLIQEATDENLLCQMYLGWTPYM
# assay_method_text: ATR Inhibition Assay (radioactive-phosphate incorporation)
# Type: biochemical
# measurement_setup: at 8 uM
endpoint_label: inhibition at 8 µM (%)

[
  {
    "compound": "CC(C)S(=O)(=O)c1ccc(-c2cnc(N)c(NC[C@H](O)c3ccccc3)n2)cc1 [Compound V-6]",
    "recorded_value": 10
  },
  {
    "compound": "CC(C)S(=O)(=O)c1ccc(-c2cnc(N)c(N3CCC(N)C3)n2)cc1 (centres unmarked) [Compound V-2]",
    "recorded_value": 10
  },
  {
    "compound": "CC(C)S(=O)(=O)c1ccc(-c2cnc(N)c(NCCc3ccccc3)n2)cc1 [Compound V-5]",
    "recorded_value": 20
  },
  {
    "compound": "CC(C)S(=O)(=O)c1ccc(-c2cnc(N)c(NC[C@@H](O)c3ccccc3)n2)cc1 [Compound V-7]",
    "recorded_value": 30
  },
  {
    "compound": "CC(C)S(=O)(=O)c1ccc(-c2cnc(N)c(NCc3ccccc3)n2)cc1 [Compound V-3]",
    "recorded_value": 10
  }
]
